Catalogue of binders with associated Kd
biological target: T1, Recombinant human CD4 (R&D Systems, Cat. 10327-CD) (human, UniProt P01730 26-390, limits assumed); assay: BLI (Octet Red384), purified antibody on anti-mouse Fc sensors, human CD4 100/50/25 nM, global 1:1 fit;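 also: antibodies loaded at 10 µg/mL, curves fitted across association and dissociation phases, with an unrelated mouse-derived antibody serving as internal reference control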
T1 construct: Bought protein; also called huCD4

BINDER: 75110_10O16A (antibody, V domains shown, Tested as antibody purified from AlivaMab Mouse Kappa hybridoma (human V regions, kappa light chain, mouse Fc captured by anti-mouse Fc sensors); also called 75110_10016A) VH: EVQLVESGGGLVQPGGSLRLSCAASGFTFSNSDMHWVRQATGKGLEWVSTIGTAGDTYYPGSVKGRFTISRENAKNSLYLQMNSLRAGDTAVYYCARGGLYYYGMDVWGQGTTVTVSS VL: ENVLTQSPGTLSLSPGERATLSCRASQSVSSSYLAWYQQKPGQAPRLLIYGASSRATGIPDRFSGSGSGTDFTLTISRLEPEDFAVYYCHQFGSSPFTFGPGTKVDIK
ENDPOINT_UNIT: nM
Kd: 2.4
--
BINDER: 75110_13P21A (antibody, V domains shown, Tested as antibody purified from AlivaMab Mouse Kappa hybridoma (human V regions, kappa light chain, mouse Fc captured by anti-mouse Fc sensors)) VH: QVQLQQWGAGLLKPSETLSLTCAVSGGSFSGYYWSWIRQPPGKGLEWIGEINHSGSTNCNPSLKSRVTISVDTSNNQFSLKLSSVTAADTAVYYCARVLNYFDYWGQGTLVTVSS VL: DIQMTQSPSSVSASVGDRVTITCRASPDIANWLAWYQQKPGKAPELLIYAASSLQSGVPSRFSGSGSGTDFTLTISSLQPEDFATYFCQQANSFPLTFGGGTKVESK
ENDPOINT_UNIT: nM
Kd: 3

Data provenance is patent US20220112288A1.
